- Test system: APP/PSi 2×Tg mice
- assay_text: Water maze behavior test
- Assay type: in vivo
- condition_details: 200 mg/kg oral gavage once a day, 8 weeks, test day 6, model group 0.9 ± 0.6
- Protocol: Rodents in water have a strong incentive to escape from the water environment, and can escape from the water environment in the fastest and most direct way. The process of learning to escape from the water environment reflects the learning ability of the animals. […] 2.2. […] If the mouse could not find the platform, then the time was recorded as 60 s. […]
Recorded The number of crossing the platform, one value per entry.

# annotated cases, reported The number of crossing the platform shown
{"columns": ["molecule", "system", "The number of crossing the platform"],
 "data": [
  ["CCCC(CCC)C(=O)S/C(CCOP(=O)(O)O)=C(/C)N(C=O)Cc1cnc(C)nc1N", "APP/PSi 2×Tg mice", "2.4 ± 0.8"],
  ["C/C(=C(\\CCOP(=O)(O)O)SC(=O)OCCc1ccccc1)N(C=O)Cc1cnc(C)nc1N", "APP/PSi 2×Tg mice", "2.2 ± 0.7"],
  ["CCC(CC)C(=O)S/C(CCOP(=O)(O)O)=C(/C)N(C=O)Cc1cnc(C)nc1N", "APP/PSi 2×Tg mice", "2.2 ± 0.6"],
  ["C/C(=C(\\CCOP(=O)(O)O)SC(=O)c1ccccc1)N(C=O)Cc1cnc(C)nc1N [BTMP, benfotiamine, reference compound]", "APP/PSi 2×Tg mice", "2.1 ± 0.6"],
  ["C/C(=C(\\CCOP(=O)(O)O)SC(=O)C(C)C)N(C=O)Cc1cnc(C)nc1N [Comparative compound 1, reference compound]", "APP/PSi 2×Tg mice", "2.1 ± 0.6"]
]}

# context switch: different molecule, same The number of crossing the platform
Request: The number of crossing the platform, test system APP/PSi 2×Tg mice, entry C/C(=C(\CCOP(=O)(O)O)SC(=O)c1ccco1)N(C=O)Cc1cnc(C)nc1N
2.3 ± 0.5
